molecular target: human recombinant dopamine D2 receptor (Homo sapiens (Human)); test: Test of binding inhibition for dopamine D2 receptor ([3H]-Methylspiperone SPA); settings: [3H]-Methylspiperone 1.2 nM, Jump-In HEK cell membranes; read-out: hD2_Ki
Sequence (P14416 whole entry): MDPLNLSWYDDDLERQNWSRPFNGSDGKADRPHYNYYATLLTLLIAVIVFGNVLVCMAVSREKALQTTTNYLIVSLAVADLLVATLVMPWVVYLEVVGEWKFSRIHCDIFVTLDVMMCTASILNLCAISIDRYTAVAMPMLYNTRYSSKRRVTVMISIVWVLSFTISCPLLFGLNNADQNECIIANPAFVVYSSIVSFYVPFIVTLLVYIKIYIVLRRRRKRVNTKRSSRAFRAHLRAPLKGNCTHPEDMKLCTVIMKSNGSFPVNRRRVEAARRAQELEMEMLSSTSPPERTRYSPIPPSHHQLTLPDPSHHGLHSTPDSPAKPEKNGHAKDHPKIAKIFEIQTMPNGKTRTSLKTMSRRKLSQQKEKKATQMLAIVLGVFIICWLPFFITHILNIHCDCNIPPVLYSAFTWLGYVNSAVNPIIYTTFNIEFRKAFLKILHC
measured parameter: log10 of Ki (log10 of the value in µM)
The common logarithm of Ki in µM is what is listed.

A selection of reference data follows.
1) Cc1ncc(OCC(=O)N[C@H]2CC[C@H](CCN3CCc4ccc(CCC(F)(F)F)nc4CC3)CC2)cn1 0.04
2) Cc1nc(CC(=O)N[C@H]2CC[C@H](CCN3CCc4ccc(CCC(F)(F)F)nc4CC3)CC2)no1 0.08
3) Cn1ncc(CC(=O)N[C@H]2CC[C@H](CCN3CCc4ccc(OCC(F)F)nc4CC3)CC2)n1 0.30

Your task in this section: give log10 of Ki for each listed record.
1. Cn1ncc(CC(=O)N[C@H]2CC[C@H](CCN3CCc4ccc(OCC(F)F)nc4CC3)CC2)c1F
2. Cc1ncc(/C=C/C(=O)N[C@H]2CC[C@](F)(CCN3CCc4ccc(OCC(C)(F)F)nc4CC3)CC2)cn1

Found:
[0.20, -1.39]

Lookup: // fetch log10 of Ki; item: Cn1cc(CC(=O)N[C@H]2CC[C@H](CCN3CCc4ccc(CCC(F)(F)F)nc4CC3)CC2)cn1 ; system: human recombinant dopamine D2 receptor (Homo sapiens (Human))
Found: 0.08

// provenance: patent US11578084B2
